Reported MRGPRX4 activation, fluorescence change (dF/F0), Average is given for each of the following compounds.
ASSAY_SYSTEM: MRGPRX4 (Homo sapiens)
Sequence (Q96LA9 whole entry): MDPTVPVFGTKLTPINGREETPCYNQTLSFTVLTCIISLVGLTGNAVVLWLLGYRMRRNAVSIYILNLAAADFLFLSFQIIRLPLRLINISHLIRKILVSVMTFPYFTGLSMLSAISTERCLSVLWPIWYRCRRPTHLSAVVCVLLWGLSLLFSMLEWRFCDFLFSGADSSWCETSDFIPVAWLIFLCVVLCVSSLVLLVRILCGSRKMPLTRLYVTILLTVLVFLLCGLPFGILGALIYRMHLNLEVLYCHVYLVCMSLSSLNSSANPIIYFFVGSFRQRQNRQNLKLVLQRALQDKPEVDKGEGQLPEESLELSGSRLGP
METHOD: MRGPRX4 activation, Fluo-8 Ca2+ FLIPR assay in HEK293T cells stably expressing MRGPRX4
Assay type: cell-based
EXPERIMENTAL_SETUP: Conc. (Log[M]) −5
API doc: respond with a numeric literal and nothing else, no unit.

// fetch MRGPRX4 activation, fluorescence change (dF/F0), Average given entry "CC[C@H]1[C@@H](O)[C@@H]2[C@H](CC[C@]3(C)[C@@H]([C@H](C)CCNC(=O)NS(=O)(=O)c4ccc5c(c4)CCN5C(C)=O)CC[C@@H]23)[C@@]2(C)CCCC[C@@H]12"
0.020

Give MRGPRX4 activation, fluorescence change (dF/F0), Average for "CC[C@H]1[C@@H](O)[C@@H]2[C@H](CC[C@]3(C)[C@@H]([C@H](C)CCC(=O)O)CC[C@@H]23)[C@@]2(C)CCCC[C@@H]12"
−0.037

The record that follows has no MRGPRX4 activation, fluorescence change (dF/F0), Average shown yet.
Fill in MRGPRX4 activation, fluorescence change (dF/F0), Average for record "CC[C@H]1[C@@H](OC(=O)c2cccc(I)c2)[C@@H]2[C@H](CC[C@]3(C)C([C@H](C)CCC(=O)OC)=CC[C@@H]23)[C@@]2(C)CCCC[C@@H]12"
−0.027

###

ASSAY_SYSTEM: MRGPRX4 (Homo sapiens)
METHOD: MRGPRX4 activation, Fluo-8 Ca2+ FLIPR assay in HEK293T cells stably expressing MRGPRX4
Type: cell-based
EXPERIMENTAL_SETUP: Conc. (Log[M]) −7.3
Each entry below lists one item and its recorded MRGPRX4 activation, fluorescence change (dF/F0), Average value.
Quick one: just the number, no unit, thanks!

Worked examples follow.
Determine from records and report MRGPRX4 activation, fluorescence change (dF/F0), Average for CC[C@H]1[C@@H](O)[C@@H]2[C@H](CC[C@]3(C)[C@@H]([C@H](C)CCNC(=O)NS(=O)(=O)c4ccc(C(C)(C)C(N)=O)cc4)CC[C@@H]23)[C@@]2(C)CCCC[C@@H]12 [5-16]
0.013

Find the measured MRGPRX4 activation, fluorescence change (dF/F0), Average of CC[C@H]1[C@@H](O)[C@@H]2[C@H](CC[C@]3(C)[C@@H]([C@H](C)CCNC(=O)NS(=O)(=O)c4ccc(C5(CO)CCCC5)cc4)CC[C@@H]23)[C@@]2(C)CCCC[C@@H]12 [5-21] and report it.
0.016

Next:
Quick one: give measured MRGPRX4 activation, fluorescence change (dF/F0), Average for CC[C@H]1[C@@H](O)[C@@H]2[C@H](CC[C@]3(C)[C@@H]([C@H](C)CCNC(=O)NS(=O)(=O)c4ccc(C(C)(C)C#N)cc4)CC[C@@H]23)[C@@]2(C)CCCC[C@@H]12 [5-17]
0.018

Give the reported value of MRGPRX4 activation, fluorescence change (dF/F0), Average for this record: CC[C@H]1[C@@H](O)[C@@H]2[C@H](CC[C@]3(C)[C@@H]([C@H](C)CCNC(=O)NS(=O)(=O)c4ccc(C(C)(C)CN)cc4)CC[C@@H]23)[C@@]2(C)CCCC[C@@H]12 [5-18]
0.018

Give a short answer stating reported MRGPRX4 activation, fluorescence change (dF/F0), Average for CC[C@H]1[C@@H](O)[C@@H]2[C@H](CC[C@]3(C)[C@@H]([C@H](C)CCNC(=O)NS(=O)(=O)c4cc(F)cc(F)c4)CC[C@@H]23)[C@@]2(C)CCCC[C@@H]12 [5-24] .
0.013

Given CC[C@H]1[C@@H](O)[C@@H]2[C@H](CC[C@]3(C)[C@@H]([C@H](C)CCNC(=O)NS(=O)(=O)c4ccc(C(C)(CO)CO)cc4)CC[C@@H]23)[C@@]2(C)CCCC[C@@H]12 [5-22] , respond with its MRGPRX4 activation, fluorescence change (dF/F0), Average.
0.018

// provenance: patent US20260116910A1
